- System: normal stem cells derived from human peripheral blood stem cells
- Protocol: Colony-forming cell assay (GM-CFU)
- Format: cell-based
- Assay conditions: highest concentration tested, 14 days incubation
Recorded metric: toxicity: inhibition of clonogenic growth of hematopoietic precursors

- Molecule: "CS(=O)(=O)N[C@@](Cc1ccccc1)(CS(=O)(=O)c1ccc(F)cc1)C(=O)Nc1ccc(C#N)c(C(F)(F)F)c1 [(R)-10]"
  Result: "negligible"
- Molecule: "N#Cc1ccc(N2C(=O)[C@](Cc3ccc(F)cc3)(c3ccccc3)NC2=S)cc1C(F)(F)F [(S)-37]"
  Result: "low"
- Molecule: "CC(C)(C)S(=O)(=O)N[C@@](C)(CS(=O)(=O)c1ccc(F)cc1)C(=O)Nc1ccc(C#N)c(C(F)(F)F)c1 [(R)-22]"
  Result: "negligible"
- Molecule: "C[C@](N)(CS(=O)(=O)c1ccc(F)cc1)C(=O)Nc1ccc(C#N)c(C(F)(F)F)c1 [(R)-23]"
  Result: "negligible"

* * *

- Test system: LNCaP cells
- Protocol: Sulforhodamine B (SRB) in vitro chemosensitivity assay on LNCaP cells
- Format: cell-based
- Assay conditions: Homo sapiens, LNCaP, 144 h, read-out: Growth inhibition (GI50), LNCaP cells, 144 h exposure
Recorded metric: GI50 (µM)
The figure you give is taken to be in µM; do not add the unit.

- Compound: "C[C@](N)(CS(=O)(=O)c1ccc(F)cc1)C(=O)Nc1ccc(C#N)c(C(F)(F)F)c1 [(R)-23]"
  Quantitative result: 10.6
- Compound: "C[C@@](N)(CS(=O)(=O)c1ccc(F)cc1)C(=O)Nc1ccc(C#N)c(C(F)(F)F)c1 [(S)-23]"
  Quantitative result: 9.4
- Compound: "Cc1ccc(S(=O)(=O)N[C@](C)(CS(=O)(=O)c2ccc(F)cc2)C(=O)Nc2ccc(C#N)c(C(F)(F)F)c2)cc1 [(S)-26]"
  Quantitative result: 6.3
- Compound: "CS(=O)(=O)N[C@@](Cc1ccccc1)(CS(=O)(=O)c1ccc(F)cc1)C(=O)Nc1ccc(C#N)c(C(F)(F)F)c1 [(R)-10]"
  Quantitative result: 7.4
- Compound: "CC(C)(C)S(=O)(=O)N[C@](C)(CS(=O)(=O)c1ccc(F)cc1)C(=O)Nc1ccc(C#N)c(C(F)(F)F)c1 [(S)-22]"
  Quantitative result: 7
- Compound: "Cc1ccc(S(=O)(=O)N[C@@](C)(CS(=O)(=O)c2ccc(F)cc2)C(=O)Nc2ccc(C#N)c(C(F)(F)F)c2)cc1 [(R)-26]"
  Quantitative result: 9.3

# lookup: GI50 of CC(C)(C)S(=O)(=O)N[C@@](C)(CS(=O)(=O)c1ccc(F)cc1)C(=O)Nc1ccc(C#N)c(C(F)(F)F)c1 [(R)-22] 5.8

# lookup: GI50 of N#Cc1ccc(N2C(=O)[C@](Cc3ccc(F)cc3)(c3ccccc3)NC2=S)cc1C(F)(F)F [(S)-37] 5.8

* * *

List of Apoptotic cells (%) values.
- Tested on: LNCaP cells
- Protocol: TUNEL assay of apoptotic cells in LNCaP
- Format: cell-based, human
- Assay conditions: 144-h exposure, 20.0 μM
I'd appreciate it if you included the unit after the number.

- Compound: "N#Cc1ccc(NC(=O)[C@@](N)(CS(=O)(=O)c2ccc(F)cc2)c2ccccc2)cc1C(F)(F)F [(R)-9]"
  Apoptotic cells (%): "93.5%"
- Compound: "C[C@](O)(CS(=O)(=O)c1ccc(F)cc1)C(=O)Nc1ccc(C#N)c(C(F)(F)F)c1 [(R)-Bicalutamide, reference compound]"
  Apoptotic cells (%): "2.1%"
- Compound: "Cc1ccc(S(=O)(=O)N[C@](C)(CS(=O)(=O)c2ccc(F)cc2)C(=O)Nc2ccc(C#N)c(C(F)(F)F)c2)cc1 [(S)-26]"
  Apoptotic cells (%): "77.5%"
- Compound: "N#Cc1ccc(N2C(=O)[C@](Cc3ccc(F)cc3)(c3ccccc3)NC2=S)cc1C(F)(F)F [(S)-37]"
  Apoptotic cells (%): "93.4%"
- Compound: "CC(C)(C)S(=O)(=O)N[C@](C)(CS(=O)(=O)c1ccc(F)cc1)C(=O)Nc1ccc(C#N)c(C(F)(F)F)c1 [(S)-22]"
  Apoptotic cells (%): "6.2%"

The record that follows has no Apoptotic cells (%) shown yet.
# lookup: Apoptotic cells (%) of CS(=O)(=O)N[C@@](Cc1ccccc1)(CS(=O)(=O)c1ccc(F)cc1)C(=O)Nc1ccc(C#N)c(C(F)(F)F)c1 [(R)-10] 35.5%
